Please provide measured Ki for the entries that follow.
target-of-assay: Proteasome component C5 (Saccharomyces cerevisiae S288c, UniProt P23724)
Sequence (P23724 whole entry): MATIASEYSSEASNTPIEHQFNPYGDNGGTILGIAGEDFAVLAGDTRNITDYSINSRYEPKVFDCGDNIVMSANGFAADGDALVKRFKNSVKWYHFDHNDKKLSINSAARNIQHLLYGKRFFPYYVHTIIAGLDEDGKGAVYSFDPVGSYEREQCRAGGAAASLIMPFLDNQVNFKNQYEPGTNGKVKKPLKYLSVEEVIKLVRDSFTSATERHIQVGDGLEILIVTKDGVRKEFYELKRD
assay-overview: Inhibition of post acid activity of yeast 20S proteasome
Residues, ends and D or L forms follow the SMILES beside them.
# value in µM; strip the unit string

*Q* Provide Ki value for the following compound: CCCCCCCCCCCCCCCC(=O)N[C@@H](Cc1ccc(O)cc1)C(=O)N[C@@H](CCC(=O)O)C(=O)N[C@@H](CC(C)C)C(=O)O (HELM PEPTIDE1{[CCCCCCCCCCCCCCCC(=O)[*:2]].Y.E.L}$$$$V2.0)
*A* 15

*Q* Read off the recorded Ki for CCCCCC(=O)N[C@@H](Cc1ccc(O)cc1)C(=O)N[C@@H](CCC(=O)O)C(=O)N[C@@H](CC(C)C)C(=O)O (HELM PEPTIDE1{[CCCCCC(=O)[*:2]].Y.E.L}$$$$V2.0)
*A* 59

*Q* Could you please provide reported Ki for CCCCCCCCCCCC(=O)N[C@@H](Cc1ccc(O)cc1)C(=O)N[C@@H](CCC(=O)O)C(=O)N[C@@H](CC(C)C)C(=O)O (HELM PEPTIDE1{[CCCCCCCCCCCC(=O)[*:2]].Y.E.L}$$$$V2.0) ? Thanks!
*A* 62

---

target-of-assay: Proteasome Macropain subunit PRE2 (Saccharomyces cerevisiae S288c, UniProt P30656)
Sequence (P30656 whole entry): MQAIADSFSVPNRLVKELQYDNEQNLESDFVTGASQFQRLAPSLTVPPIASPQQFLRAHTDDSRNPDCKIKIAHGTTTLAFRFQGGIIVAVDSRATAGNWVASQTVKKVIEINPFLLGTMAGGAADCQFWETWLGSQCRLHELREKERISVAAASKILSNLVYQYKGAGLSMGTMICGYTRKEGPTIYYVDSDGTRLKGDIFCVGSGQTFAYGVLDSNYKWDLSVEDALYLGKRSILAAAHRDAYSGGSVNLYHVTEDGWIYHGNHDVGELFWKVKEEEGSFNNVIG
assay-overview: Inhibition of chymotrypsin like activity of yeast 20S proteasome
Residues, ends and D or L forms follow the SMILES beside them.
metric: pKi
Value format note: pKi is -log10 of concentration (mol/L); just state the number.

*Q* Give measured pKi for CCCCCCCCCCCCCCCC(=O)N[C@@H](Cc1ccccc1)C(=O)N[C@@H](CCCCN)C(=O)N[C@@H](Cc1ccccc1)C(=O)O (HELM PEPTIDE1{[CCCCCCCCCCCCCCCC(=O)[*:2]].F.K.F}$$$$V2.0) (Proteasome Macropain subunit PRE2 (Saccharomyces cerevisiae S288c, UniProt P30656)).
*A* 4.52

*Q* Determine reported pKi for CCCCCCCC(=O)N[C@H](C(=O)N[C@H](C(=O)N[C@H](C(=O)N[C@@H](Cc1ccc(O)cc1)C(=O)N[C@@H](CCCCN)C(=O)N[C@@H](Cc1ccccc1)C(=O)O)[C@@H](C)O)C(C)C)[C@@H](C)O (HELM PEPTIDE1{[CCCCCCCC(=O)[*:2]].T.V.T.Y.K.F}$$$$V2.0) ; test system: Proteasome Macropain subunit PRE2 (Saccharomyces cerevisiae S288c, UniProt P30656).
*A* 4.70

*Q* Name the value of pKi reported for CCCCCCCCCCCCCCCCCC(=O)N[C@H](C(=O)N[C@H](C(=O)N[C@H](C(=O)N[C@@H](Cc1ccccc1)C(=O)N[C@@H](CC(=O)O)C(=O)N[C@@H](Cc1ccc(O)cc1)C(=O)O)[C@@H](C)O)[C@@H](C)CC)[C@@H](C)O (HELM PEPTIDE1{[CCCCCCCCCCCCCCCCCC(=O)[*:2]].T.I.T.F.D.Y}$$$$V2.0) when tested on Proteasome Macropain subunit PRE2 (Saccharomyces cerevisiae S288c, UniProt P30656).
*A* 4.41

*Q* Report measured pKi on Proteasome Macropain subunit PRE2 (Saccharomyces cerevisiae S288c, UniProt P30656); entry: CCCCCCCCCCCCCCCC(=O)N[C@@H](Cc1ccc(O)cc1)C(=O)N[C@@H](CC(=O)O)C(=O)N[C@@H](CC(C)C)C(=O)O (HELM PEPTIDE1{[CCCCCCCCCCCCCCCC(=O)[*:2]].Y.D.L}$$$$V2.0)
*A* 4.70

*Q* Please report the measured pKi for CCCCCCCCCCCCCCC(N)C(=O)N[C@@H](Cc1ccc(O)cc1)C(=O)N[C@@H](CCC(=O)O)C(=O)N[C@H](C(=O)O)[C@@H](C)O (stereo partly drawn) (HELM PEPTIDE1{[CCCCCCCCCCCCCCC(N)C(=O)[*:2]].Y.E.T}$$$$V2.0) tested on Proteasome Macropain subunit PRE2 (Saccharomyces cerevisiae S288c, UniProt P30656).
*A* 5.30
